assay: Cytotoxicity against human HeLa cells assessed as reduction in cell viability incubated for 48 hrs by flow cytometry; assay type: toxicity, cell-based
result-type: IC50 at 48 h (µM)
Entry rule: numbers only, all in µM.

Examples with answers:
Fc1cc2cc3cc(F)c(=[N+]4CCC4)cc-3oc2cc1N1CCC1.O=C([O-])C(F)(F)F : 15
CCN(CC)c1ccc2cc3ccc(N(CC)CC)cc3[o+]c2c1.[Cl-] : 2

What measured IC50 at 48 h goes with `CCN(CC)c1cc2oc3cc(=[N+](CC)CC)c(F)cc-3cc2cc1F.O=C([O-])C(F)(F)F` ?
9

Repeat with `CCN(CC)c1cc2oc3cc(N(CC)CC)c(F)cc3c(=O)c2cc1F`
51

Repeat with `O=C([O-])C(F)(F)F.c1cc(=[N+]2CCC2)cc2oc3cc(N4CCC4)ccc3cc1-2`
3

Repeat with `CCNc1c2cc(F)c(=[N+](CC)CC)cc-2oc2cc(N(CC)CC)c(F)cc12.O=C([O-])C(F)(F)F`
3

====

assay: Cytotoxicity against human Jurkat cells assessed as reduction in cell viability incubated for 48 hrs by flow cytometry; format: toxicity, cell-based
This listing pairs molecules with measured IC50 at 48 h.
Entry rule: numbers only, all in nM.

Examples with answers:
O=C([O-])C(F)(F)F.c1cc(=[N+]2CCC2)cc2oc3cc(N4CCC4)ccc3cc1-2 : 200
Fc1cc2cc3cc(F)c(=[N+]4CCC4)cc-3oc2cc1N1CCC1.O=C([O-])C(F)(F)F : 900
CCN(CC)c1ccc2cc3ccc(N(CC)CC)cc3[o+]c2c1.[Cl-] : 100
CCNc1c2cc(F)c(=[N+](CC)CC)cc-2oc2cc(N(CC)CC)c(F)cc12.O=C([O-])C(F)(F)F : 800
CCN(CC)c1cc2oc3cc(=[N+](CC)CC)c(F)cc-3cc2cc1F.O=C([O-])C(F)(F)F : 1000

What measured IC50 at 48 h goes with `CCN(CC)c1cc2oc3cc(N(CC)CC)c(F)cc3c(=O)c2cc1F` ?
17000

====

experiment: Stability in human Jurkat lymphocytes assessed as half life in mitochondria at 10 uM incubated for 1 hrs by flow cytometry; type: ADME
We use 20 min as the dividing line for half-life at 10 µM: on or above the line is yes (1), below is no (0).

Observe how each entry below is paired with its result.
O=C([O-])C(F)(F)F.c1cc(=[N+]2CCC2)cc2oc3cc(N4CCC4)ccc3cc1-2 : yes (1)
CCNc1c2cc(F)c(=[N+](CC)CC)cc-2oc2cc(N(CC)CC)c(F)cc12.O=C([O-])C(F)(F)F : yes (1)
Fc1cc2cc3cc(F)c(=[N+]4CCC4)cc-3oc2cc1N1CCC1.O=C([O-])C(F)(F)F : no (0)
COC(=O)c1ccccc1-c1c2ccc(=N)cc-2oc2cc(N)ccc12.Cl : yes (1)

Record `CCN(CC)c1ccc2cc3ccc(N(CC)CC)cc3[o+]c2c1.[Cl-]` ; criterion: half-life at 10 µM no lower than 20 min. Met?
no (0)

Repeat with `CCN(CC)c1cc2oc3cc(N(CC)CC)c(F)cc3c(=O)c2cc1F`
no (0)

Repeat with `CCN(CC)c1cc2oc3cc(=[N+](CC)CC)c(F)cc-3cc2cc1F.O=C([O-])C(F)(F)F`
no (0)
